All values here come from ChEMBL document CHEMBL1201862.

# SYSTEM UNDER TEST: Heat shock factor protein 1 (Mus musculus)
# Sequence (P38532 whole entry): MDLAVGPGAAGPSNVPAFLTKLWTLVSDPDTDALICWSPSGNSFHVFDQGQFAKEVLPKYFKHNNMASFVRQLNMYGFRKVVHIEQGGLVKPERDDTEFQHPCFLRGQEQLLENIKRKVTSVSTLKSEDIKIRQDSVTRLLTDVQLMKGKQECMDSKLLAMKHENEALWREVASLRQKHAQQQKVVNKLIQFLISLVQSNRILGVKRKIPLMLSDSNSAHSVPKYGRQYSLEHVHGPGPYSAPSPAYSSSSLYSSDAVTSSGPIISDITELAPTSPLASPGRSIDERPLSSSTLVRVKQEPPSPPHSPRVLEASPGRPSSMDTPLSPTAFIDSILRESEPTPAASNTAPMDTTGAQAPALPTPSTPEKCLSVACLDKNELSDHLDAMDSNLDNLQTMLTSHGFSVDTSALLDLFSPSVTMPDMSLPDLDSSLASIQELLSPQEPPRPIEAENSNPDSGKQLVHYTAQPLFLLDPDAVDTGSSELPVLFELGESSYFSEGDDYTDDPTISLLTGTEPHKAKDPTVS
# PROTOCOL TEXT: decrease of HSF1-responsive luciferase luminescence – cell-based, NIH3T3, dose retest, confirmation (AID 2382);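 also: NIH3T3 fibroblasts with HSF1-driven luciferase reporter stressed by proteasome inhibitor MG132; luminescence from HSF1-driven luciferase expression after 8 hours of MG132 stress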
# Type: functional
Activity calls are given as the source filed them.
# Lookup of reported EC50 keyed by entry

Data request, read-out EC50, for `COc1ccc(C)cc1NC(=O)C(=O)NNC(=O)COc1ccc(Cl)cc1`
14.8 µM (active)

Data request, read-out EC50, for CCC(C)N(C(=O)C(F)(F)F)C(C(=O)NC1CCCCC1)c1ccncc1 (stereo unspecified)
> 195 µM (not active)

Data request, read-out EC50, for `O=C(CSc1nnnn1CCCO)Nc1ccc2c(c1)OCO2`
> 195 µM (not active)

Data request, read-out EC50, for `O=C(NCCNc1ccnc2cc(Cl)ccc12)c1ccccc1F`
39.7 µM (active)

Data request, read-out EC50, for `CC(=O)Nc1c(C(=O)Nc2ccc3c(c2)OCO3)oc2ccccc12`
> 195 µM (not active)

Data request, read-out EC50, for `CC/N=C1\S/C(=C\c2ccc(-c3cccc(C(=O)O)c3)o2)C(=O)N1CC`
> 195 µM (not active)

Data request, read-out EC50, for `O=C(NCCN1CCCCC1)Nc1ccccc1Cl`
> 195 µM (not active)

Data request, read-out EC50, for CCOC(=O)c1c(S(=O)(=O)N2CCCCC2C)c(C)n(C)c1C (stereo unspecified)
> 195 µM (not active)

Data request, read-out EC50, for `COc1ccc2nnc(-c3ccc(C(F)(F)F)cc3)n2n1`
> 195 µM (not active)

Data request, read-out EC50, for CC1Cc2ccccc2N1CC(=O)NC(=O)NCc1ccccc1 (stereo unspecified)
> 195 µM (not active)

Data request, read-out EC50, for `CCCC[C@@H]1C[C@H]1[C@@H](NC(=O)c1ccco1)c1ccc(Cl)cc1`
> 195 µM (not active)

----------
# SYSTEM UNDER TEST: High affinity choline transporter 1 (Homo sapiens)
# Sequence (Q9GZV3 whole entry): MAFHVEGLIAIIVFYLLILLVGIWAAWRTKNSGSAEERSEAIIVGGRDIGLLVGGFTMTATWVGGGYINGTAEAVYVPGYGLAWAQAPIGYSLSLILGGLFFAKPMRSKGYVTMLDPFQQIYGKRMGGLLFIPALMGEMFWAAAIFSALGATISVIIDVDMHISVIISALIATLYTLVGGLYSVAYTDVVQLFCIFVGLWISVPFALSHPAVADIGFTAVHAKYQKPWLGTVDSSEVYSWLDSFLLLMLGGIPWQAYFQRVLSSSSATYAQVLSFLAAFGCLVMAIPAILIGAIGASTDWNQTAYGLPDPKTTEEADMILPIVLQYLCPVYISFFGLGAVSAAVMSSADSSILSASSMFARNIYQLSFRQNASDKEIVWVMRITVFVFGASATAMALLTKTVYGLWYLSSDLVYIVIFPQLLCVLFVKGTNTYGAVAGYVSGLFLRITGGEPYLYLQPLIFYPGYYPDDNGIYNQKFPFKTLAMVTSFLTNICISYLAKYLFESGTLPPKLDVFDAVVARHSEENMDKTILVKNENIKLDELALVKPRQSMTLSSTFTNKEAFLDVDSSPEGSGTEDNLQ
# PROTOCOL TEXT: human choline transporter blockers, potency – cell-based, 5-point CRC, membrane potential dye, dose response (AID 504840)
# Type: functional
Calls of active or inactive are those of the source.
REPORTED METRIC: IC50

CCN1CCN(c2ncnc3scc(-c4ccc(OC)cc4)c23)CC1 | 12.9 µM (active)
CC1CCCCC1NC(=O)c1c(O)n2ccccc2nc1=O (centres undefined) | 4.79 µM (active)
Cc1cc(/C=N/NC(=O)C(=O)N2CCCC2)c(C)n1-c1cccc(Br)c1 | 13.8 µM (active)

// next item, IC50 requested
Data request, read-out IC50, for `CC1=NC(C)(C)Cc2ccccc21.O=C(O)c1ccccc1O`
13.2 µM (active)

----------
# SYSTEM UNDER TEST: Mannose-6-phosphate isomerase (Homo sapiens, UniProt P34949)
# Sequence (P34949 whole entry): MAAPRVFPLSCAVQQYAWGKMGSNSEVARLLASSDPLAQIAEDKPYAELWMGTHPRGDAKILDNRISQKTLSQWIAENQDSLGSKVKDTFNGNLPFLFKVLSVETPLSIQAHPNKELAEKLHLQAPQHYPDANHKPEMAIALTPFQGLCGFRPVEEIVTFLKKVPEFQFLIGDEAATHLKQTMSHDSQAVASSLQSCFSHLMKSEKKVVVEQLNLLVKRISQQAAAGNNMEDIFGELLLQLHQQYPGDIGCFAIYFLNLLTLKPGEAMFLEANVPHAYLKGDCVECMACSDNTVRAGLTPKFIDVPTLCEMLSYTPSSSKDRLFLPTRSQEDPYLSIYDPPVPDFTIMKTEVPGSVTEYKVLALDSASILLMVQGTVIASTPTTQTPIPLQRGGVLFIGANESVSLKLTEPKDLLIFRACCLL
# PROTOCOL TEXT: MPI inhibition at elevated mannose 6-phosphate – biochemical, fluorescence intensity, high mannose 6-phosphate, primary screen (AID 1220)
The source made the active and inactive calls.
REPORTED METRIC: IC50

Cc1nc2c(=O)n(C)c(=O)nc-2n(C)n1 | 6.09 µM (active)
CCN(Cc1ccncc1)Cc1c(O)ccc2ccccc12 | > 50 µM (not active)
C/N=C(/c1ccco1)n1c(=S)nc(-c2ccco2)n(C)c1=S | > 50 µM (not active)

Data request, read-out IC50, for `CCOC(=O)C(Nc1ccc2ccccc2c1)C(=O)OCC`
> 50 µM (not active)

Data request, read-out IC50, for `Nc1scc2c(C(=O)N/N=C/c3ccc(Cl)cc3)nn(-c3ccccc3)c(=O)c12`
> 50 µM (not active)

Data request, read-out IC50, for `Oc1ccc(CNc2ccc(F)cc2)c2cccnc12`
31 µM (active)

----------
Observed IC50 values for Glyceraldehyde-3-phosphate dehydrogenase (Homo sapiens) are listed in what follows.
The source made the active and inactive calls.

CCOc1ccc(C(CC(=O)O)CC(=O)O)cc1 | > 100 µM (not active)

Lab note: need IC50 with Glyceraldehyde-3-phosphate dehydrogenase (Homo sapiens) for entry `O=C1C(Cl)=C(N2CCN(CCOCCO)CC2)C(=O)N1c1ccc(C(F)(F)F)cc1` , please look it up.
Sequence (P04406 whole entry): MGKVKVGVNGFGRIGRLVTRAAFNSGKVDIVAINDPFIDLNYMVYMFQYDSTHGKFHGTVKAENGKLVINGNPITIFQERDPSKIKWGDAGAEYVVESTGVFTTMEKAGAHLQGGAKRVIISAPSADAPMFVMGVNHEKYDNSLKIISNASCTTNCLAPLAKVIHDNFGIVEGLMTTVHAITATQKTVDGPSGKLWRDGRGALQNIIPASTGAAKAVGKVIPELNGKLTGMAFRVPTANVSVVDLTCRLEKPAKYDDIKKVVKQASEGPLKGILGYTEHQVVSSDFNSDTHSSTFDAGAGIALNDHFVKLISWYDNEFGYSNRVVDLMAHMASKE
> 50 µM (inconclusive)

Lab note: need IC50 with Glyceraldehyde-3-phosphate dehydrogenase (Homo sapiens) for entry `Cc1cc(NC(=O)/C=C/c2cccs2)no1` , please look it up.
62.6 µM (active)

Lab note: need IC50 with Glyceraldehyde-3-phosphate dehydrogenase (Homo sapiens) for entry `O=c1/c(=C/c2ccc(-c3ccccc3[N+](=O)[O-])o2)sc2nc3cc(Br)cnc3n12` , please look it up.
> 100 µM (not active)

Lab note: need IC50 with Glyceraldehyde-3-phosphate dehydrogenase (Homo sapiens) for entry O=C(O)C(O)c1ccccc1 (stereo unspecified) , please look it up.
> 100 µM (not active)

Lab note: need IC50 with Glyceraldehyde-3-phosphate dehydrogenase (Homo sapiens) for entry CC(OC(=O)c1cc(-c2ccc(Br)cc2)[nH]n1)C(=O)NC(C)(C)C (stereo unspecified) , please look it up.
> 100 µM (not active)

----------
# Lookup of reported IC50 keyed by entry
# SYSTEM UNDER TEST: Fatty acid synthase (Homo sapiens, UniProt P49327)
# Sequence (P49327 whole entry): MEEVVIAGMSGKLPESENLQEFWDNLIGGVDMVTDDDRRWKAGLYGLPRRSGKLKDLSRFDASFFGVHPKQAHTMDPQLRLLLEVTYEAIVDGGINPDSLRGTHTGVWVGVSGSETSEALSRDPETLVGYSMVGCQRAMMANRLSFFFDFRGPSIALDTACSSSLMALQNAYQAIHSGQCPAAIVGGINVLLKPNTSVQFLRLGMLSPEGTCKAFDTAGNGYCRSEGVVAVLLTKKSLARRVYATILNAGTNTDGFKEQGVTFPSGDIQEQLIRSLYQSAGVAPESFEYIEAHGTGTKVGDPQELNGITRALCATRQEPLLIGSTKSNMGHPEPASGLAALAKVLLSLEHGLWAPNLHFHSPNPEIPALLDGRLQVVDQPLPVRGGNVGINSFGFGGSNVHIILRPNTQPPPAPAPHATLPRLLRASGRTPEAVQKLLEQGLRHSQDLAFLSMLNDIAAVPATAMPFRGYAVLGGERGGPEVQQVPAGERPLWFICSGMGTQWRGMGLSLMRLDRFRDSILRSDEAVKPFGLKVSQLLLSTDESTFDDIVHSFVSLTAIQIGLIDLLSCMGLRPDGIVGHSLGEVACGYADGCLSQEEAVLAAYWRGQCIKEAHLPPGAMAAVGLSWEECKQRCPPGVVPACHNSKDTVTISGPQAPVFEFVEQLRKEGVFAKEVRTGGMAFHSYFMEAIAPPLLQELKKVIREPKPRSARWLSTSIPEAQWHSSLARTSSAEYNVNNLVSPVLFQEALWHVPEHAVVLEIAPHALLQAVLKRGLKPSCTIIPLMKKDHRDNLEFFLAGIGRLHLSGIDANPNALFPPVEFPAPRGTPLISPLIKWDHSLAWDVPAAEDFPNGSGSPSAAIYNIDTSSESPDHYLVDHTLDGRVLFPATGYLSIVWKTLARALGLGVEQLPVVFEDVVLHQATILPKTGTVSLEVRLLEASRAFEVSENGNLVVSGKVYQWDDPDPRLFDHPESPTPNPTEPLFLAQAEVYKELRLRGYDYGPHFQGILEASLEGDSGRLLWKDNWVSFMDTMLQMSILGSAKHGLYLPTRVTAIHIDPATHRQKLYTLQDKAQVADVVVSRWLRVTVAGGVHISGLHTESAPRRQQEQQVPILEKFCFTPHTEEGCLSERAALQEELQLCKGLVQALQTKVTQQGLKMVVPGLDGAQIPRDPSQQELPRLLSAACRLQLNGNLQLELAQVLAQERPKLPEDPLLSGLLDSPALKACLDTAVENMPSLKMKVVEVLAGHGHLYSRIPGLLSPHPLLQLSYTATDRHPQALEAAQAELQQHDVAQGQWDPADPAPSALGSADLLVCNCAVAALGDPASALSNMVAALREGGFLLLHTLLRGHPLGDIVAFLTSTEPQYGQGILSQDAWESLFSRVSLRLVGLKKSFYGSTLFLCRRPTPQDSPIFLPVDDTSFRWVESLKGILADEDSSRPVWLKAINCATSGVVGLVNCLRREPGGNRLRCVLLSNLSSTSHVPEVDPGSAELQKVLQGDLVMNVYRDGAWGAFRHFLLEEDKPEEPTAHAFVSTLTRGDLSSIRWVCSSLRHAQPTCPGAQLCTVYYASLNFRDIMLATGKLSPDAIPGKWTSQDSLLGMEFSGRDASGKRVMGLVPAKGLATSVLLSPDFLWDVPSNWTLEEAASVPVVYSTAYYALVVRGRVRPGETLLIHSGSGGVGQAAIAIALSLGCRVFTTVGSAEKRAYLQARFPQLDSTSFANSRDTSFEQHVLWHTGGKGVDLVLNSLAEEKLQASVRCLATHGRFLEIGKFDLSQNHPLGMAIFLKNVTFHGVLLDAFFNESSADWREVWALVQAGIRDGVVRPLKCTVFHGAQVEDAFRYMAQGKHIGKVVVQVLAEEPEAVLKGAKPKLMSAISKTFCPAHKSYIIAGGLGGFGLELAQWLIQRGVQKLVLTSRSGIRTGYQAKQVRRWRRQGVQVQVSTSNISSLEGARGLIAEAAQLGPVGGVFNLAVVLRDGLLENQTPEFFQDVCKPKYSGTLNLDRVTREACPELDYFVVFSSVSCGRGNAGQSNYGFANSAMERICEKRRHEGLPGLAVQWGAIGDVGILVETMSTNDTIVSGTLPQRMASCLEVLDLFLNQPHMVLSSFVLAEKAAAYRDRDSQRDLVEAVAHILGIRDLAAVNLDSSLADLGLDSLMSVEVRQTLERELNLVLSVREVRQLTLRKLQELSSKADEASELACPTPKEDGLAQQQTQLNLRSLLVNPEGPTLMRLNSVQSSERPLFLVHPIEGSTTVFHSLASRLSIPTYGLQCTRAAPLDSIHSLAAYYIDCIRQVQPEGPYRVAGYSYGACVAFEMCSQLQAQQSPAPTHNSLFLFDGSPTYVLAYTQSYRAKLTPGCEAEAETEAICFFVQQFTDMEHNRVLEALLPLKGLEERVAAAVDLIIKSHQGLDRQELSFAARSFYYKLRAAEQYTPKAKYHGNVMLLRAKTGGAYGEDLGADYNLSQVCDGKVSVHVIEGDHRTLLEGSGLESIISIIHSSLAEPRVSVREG
# PROTOCOL TEXT: inhibition of human FAS-TE enzyme activity – biochemical, kinetic fluorescence intensity, dose response (AID 624326);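 also: rate of fluorescence rise from hydrolysis of a fluorogenic O-methyl fluorescein ester substrate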
# Assay type: functional
Active and inactive are the calls of the source.

Worked cases, IC50 given:
CN1CCc2nc(SCc3ccccc3Br)c(C#N)cc2C1 | 6.01 µM (active)
Cc1ccc(NC(=O)CN2C(=O)CSc3ccc(S(=O)(=O)N4CCCCC4)cc32)cc1 | 9.65 µM (active)
O=C(c1cc2cc([N+](=O)[O-])ccc2oc1=O)N1CCN(C2CCCCC2)CC1 | 9.68 µM (active)
CCN(C(=O)COC(=O)c1cc([N+](=O)[O-])ccc1N1CCOCC1)C1CCCCC1 | 4.08 µM (active)

// next item, IC50 requested
Data request, read-out IC50, for `Cc1cccc(C)c1Cn1c(C)c(C(=O)NCc2ccc([N+](=O)[O-])cc2)sc1=O`
4.48 µM (active)

----------
# SYSTEM UNDER TEST: Sentrin-specific protease 6 (Homo sapiens, UniProt Q9GZR1);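 also: Luminescence-based dose-response confirmatory assay of SENP6 inhibition, following up an ultra-high-throughput screen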
# Sequence (Q9GZR1 whole entry): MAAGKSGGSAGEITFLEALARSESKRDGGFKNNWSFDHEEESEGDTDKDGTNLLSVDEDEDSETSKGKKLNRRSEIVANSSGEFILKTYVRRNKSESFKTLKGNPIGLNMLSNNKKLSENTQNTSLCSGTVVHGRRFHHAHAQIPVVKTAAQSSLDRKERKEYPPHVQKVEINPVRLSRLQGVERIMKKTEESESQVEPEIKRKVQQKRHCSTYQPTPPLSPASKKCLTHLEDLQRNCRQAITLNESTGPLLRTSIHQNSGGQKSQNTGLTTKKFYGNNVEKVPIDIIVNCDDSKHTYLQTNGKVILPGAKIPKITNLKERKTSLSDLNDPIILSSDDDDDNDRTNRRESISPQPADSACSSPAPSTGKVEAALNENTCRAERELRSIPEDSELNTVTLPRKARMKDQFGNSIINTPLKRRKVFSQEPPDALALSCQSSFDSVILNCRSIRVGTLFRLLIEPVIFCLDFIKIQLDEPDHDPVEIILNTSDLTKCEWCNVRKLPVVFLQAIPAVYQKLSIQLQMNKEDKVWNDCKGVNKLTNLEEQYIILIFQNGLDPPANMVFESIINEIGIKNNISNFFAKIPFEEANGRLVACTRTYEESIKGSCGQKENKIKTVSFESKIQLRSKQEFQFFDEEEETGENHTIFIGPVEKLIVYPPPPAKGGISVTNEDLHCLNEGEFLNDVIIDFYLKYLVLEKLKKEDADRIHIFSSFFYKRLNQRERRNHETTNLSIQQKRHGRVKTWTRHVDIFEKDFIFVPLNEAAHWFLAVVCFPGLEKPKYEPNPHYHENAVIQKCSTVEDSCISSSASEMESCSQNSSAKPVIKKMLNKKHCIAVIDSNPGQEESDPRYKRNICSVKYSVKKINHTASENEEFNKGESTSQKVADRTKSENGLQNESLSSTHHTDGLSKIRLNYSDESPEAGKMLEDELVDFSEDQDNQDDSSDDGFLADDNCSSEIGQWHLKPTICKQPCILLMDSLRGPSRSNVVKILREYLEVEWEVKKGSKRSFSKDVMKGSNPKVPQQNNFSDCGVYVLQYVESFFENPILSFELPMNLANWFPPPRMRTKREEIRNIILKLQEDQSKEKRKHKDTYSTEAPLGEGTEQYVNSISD
# Type: functional
Calls of active or inactive are those of the source.
# Lookup of reported IC50 keyed by entry

Data request, read-out IC50, for `COc1cccc(NC(=O)Nc2ccc3c(c2)CCC3)c1`
> 100 µM (inactive)

----------
# SYSTEM UNDER TEST: Adenosylmethionine-8-amino-7-oxononanoate aminotransferase (Mycobacterium tuberculosis)
# Sequence (P9WQ81 whole entry): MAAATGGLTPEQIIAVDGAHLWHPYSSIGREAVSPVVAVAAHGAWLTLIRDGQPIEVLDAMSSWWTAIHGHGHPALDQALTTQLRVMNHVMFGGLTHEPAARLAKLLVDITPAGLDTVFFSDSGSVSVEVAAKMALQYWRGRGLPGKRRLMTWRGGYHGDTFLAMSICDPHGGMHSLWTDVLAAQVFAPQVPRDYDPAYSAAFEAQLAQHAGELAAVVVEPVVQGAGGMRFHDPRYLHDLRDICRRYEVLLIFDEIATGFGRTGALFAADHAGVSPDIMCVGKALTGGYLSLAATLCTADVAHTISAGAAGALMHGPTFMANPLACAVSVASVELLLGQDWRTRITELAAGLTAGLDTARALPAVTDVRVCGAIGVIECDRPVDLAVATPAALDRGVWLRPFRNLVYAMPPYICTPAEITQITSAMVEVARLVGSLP
# PROTOCOL TEXT: Mycobacterium tuberculosis BioA enzyme inhibitor Measured in Biochemical System Using Plate Reader - 2163-02_Inhibitor_Dose_CherryPick_Activity.
# Format: functional, Mycobacterium tuberculosis UT205
Activity calls are given as the source filed them.
REPORTED METRIC: AC50

Clc1ccc(CSc2nnc(-c3cccnc3)o2)cc1 | 4.13 µM (active)
CCN(CC)c1ccc2cc(C(=O)c3cccs3)c(=O)oc2c1 | 0.195 µM (active)
O=C(Nc1ccc(F)c(Cl)c1)C1CCCN(c2cnccn2)C1 (centres undefined) | 3.25 µM (active)

Data request, read-out AC50, for `CCCCN1C(=O)c2ccc(C(=O)Nc3cccnc3)cc2C1=O`
0.544 µM (active)
